tgt: cynomolgus monkey (cyno) TIGIT protein (cynomolgus monkey, UniProt A0A7N9I9V4 89-209)
Sequence (A0A7N9I9V4 entry or part of it): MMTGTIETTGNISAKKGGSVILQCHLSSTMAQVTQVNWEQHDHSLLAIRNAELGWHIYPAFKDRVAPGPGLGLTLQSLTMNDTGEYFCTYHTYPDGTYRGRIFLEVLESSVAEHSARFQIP
experimental protocol: SPR, captured mAb
endpoint name: koff

>  <binder>
rat10A5 (antibody, V domains shown, SD rat-derived; rat V domains as FR/HVR pieces; also called 1.10A5; Chimeric 1.10A5) VH: QVSLKESGPGILQPSHTLSLTCSFSGFSLTTYGMGVSWIRQPSEKGLEWLASIWWNGNTYYNPSLRSRLTVSKDTSNDQAFLNVTSVDTTDTATYYCAHTGGAVITWFAYWGQGTLVTVSS VL: NIVMTQSPKSMSISIGDRVTMNCKASQSVGKNIAWYQQKTGQSPQLLIYYASNRYTGVPDRFTGGGSGTDFTLTINSVQAEDAAFFYCQHIYNSPYPFGTGTKLEIK

>  <reported result>
0.000281 s⁻¹

$$$$
>  <binder>
h7E7.L1H6 (antibody, V domains shown, VH: A71R against h7E7.L1H1; FR/HVR pieces) VH: EVQLVQSGAEVKKPGASVKVSCKASGYTFTEYSIYWVRQAPGQRLEIIGRIDPKNGRTYYVDKFKNRATLTRDTSASTAYMELSSLRSEDTAVYFCTRIYGFYFDFWGQGTLVTVSS VL: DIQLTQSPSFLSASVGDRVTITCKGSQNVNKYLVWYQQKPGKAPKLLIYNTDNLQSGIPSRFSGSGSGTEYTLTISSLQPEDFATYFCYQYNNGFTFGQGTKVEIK

>  <reported result>
0.000284 s⁻¹

$$$$
>  <binder>
h7E7.L1H8 (antibody, V domains shown, VH: T93A against h7E7.L1H1; FR/HVR pieces) VH: EVQLVQSGAEVKKPGASVKVSCKASGYTFTEYSIYWVRQAPGQRLEIIGRIDPKNGRTYYVDKFKNRATLTADTSASTAYMELSSLRSEDTAVYFCARIYGFYFDFWGQGTLVTVSS VL: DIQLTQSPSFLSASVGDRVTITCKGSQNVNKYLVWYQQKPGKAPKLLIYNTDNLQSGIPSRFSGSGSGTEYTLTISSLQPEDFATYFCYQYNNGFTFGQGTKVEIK

>  <reported result>
0.000331 s⁻¹

$$$$
>  <binder>
h15C8.L1H8 (antibody, V domains shown, VH: F91Y against h15C8.L1H1; FR/HVR pieces) VH: EVQLVQSGAEVKKPGASVKVSCKASGYTFTEHSIYWLRQAPGQRLEIIGRIDPKNGRTYFVDKFKNRATLTTDTSASTAYMELSSLRSEDTAVYYCARIDGFYFDFWGQGTLVTVSS VL: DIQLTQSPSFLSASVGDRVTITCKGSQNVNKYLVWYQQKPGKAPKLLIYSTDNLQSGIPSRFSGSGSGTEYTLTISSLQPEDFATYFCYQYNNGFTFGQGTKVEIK

>  <reported result>
0.000119 s⁻¹

$$$$
>  <binder>
rat15C8 (antibody, V domains shown, SD rat-derived; rat V domains as FR/HVR pieces; also called 1.15C8; Chimeric 1.15C8) VH: EVQLQQSGPELQRPGASVKLSCKASGYTFTEHSIYWLKQRPKQSLEIIGRIDPKNGRTYFVDKFKNRATLTTNTSSNTAYMQLSSLTSEDTAIYFCARIDGFYFDFWGQGVMVTASS VL: NIHLTQSPSLLSASVGDRVTLSCKGSQNVNKYLVWYQQKLGEAPKLLIYSTDNLQSGIPSRFSGSGSGTDYTLTISSLQPEDAATYFCYQYNNGFTFGSGTKLEIK

>  <reported result>
9.6e-05 s⁻¹

$$$$
